Provide the recorded MIC Coagulase Negative Staphylococcus (GC 6257) for the entries that follow.
Tested on: Staphylococcus sp.
method.summary: in vitro antibacterial evaluation, MIC by broth dilution
Type: cell-based
condition: broth dilution, 18 hours at 35° C.; strain GC 6257
One number for each entry, in µg/mL.

Observe how each entry below is paired with its result.
CC(C)=CCCC1OCC2OC(OC3C(CO)OC(Oc4ccc(CC5NC(=O)C(C(C)c6ccccc6)NC(=O)CNC(=O)C(CO)NC(=O)C(C(O)C6CNC(=N)N6C6OC(CO)C(O)C(O)C6O)NC(=O)C(C(O)C6CNC(=N)N6)NC5=O)cc4)C(O)C3O)C(O)C(O)C2O1 (stereo not shown) [Example 123] :: 4
CCCCOC(=O)CCC1OCC2OC(OC3C(CO)OC(Oc4ccc(CC5NC(=O)C(C(C)c6ccccc6)NC(=O)CNC(=O)C(CO)NC(=O)C(C(O)C6CNC(=N)N6C6OC(CO)C(O)C(O)C6O)NC(=O)C(C(O)C6CNC(=N)N6)NC5=O)cc4)C(O)C3O)C(O)C(O)C2O1 (stereo not shown) [Example 114] :: 1

Could I get MIC Coagulase Negative Staphylococcus (GC 6257) for every one of these entries?
1. CC(c1ccccc1)C1NC(=O)CNC(=O)C(CO)NC(=O)C(C(O)C2CNC(=N)N2C2OC(CO)C(O)C(O)C2O)NC(=O)C(C(O)C2CNC(=N)N2)NC(=O)C(Cc2ccc(OC3OC(CO)C(OC4OC5COC(c6ccc(S(C)(=O)=O)cc6)OC5C(O)C4O)C(O)C3O)cc2)NC1=O (stereo not shown) [Example 157]
2. CCOc1cc(C2OCC3OC(OC4C(CO)OC(Oc5ccc(CC6NC(=O)C(C(C)c7ccccc7)NC(=O)CNC(=O)C(CO)NC(=O)C(C(O)C7CNC(=N)N7C7OC(CO)C(O)C(O)C7O)NC(=O)C(C(O)C7CNC(=N)N7)NC6=O)cc5)C(O)C4O)C(O)C(O)C3O2)ccc1[N+](=O)[O-] (stereo not shown) [Example 167]
3. COc1cc(OC)cc(C2OCC3OC(OC4C(CO)OC(Oc5ccc(CC6NC(=O)C(C(C)c7ccccc7)NC(=O)CNC(=O)C(CO)NC(=O)C(C(O)C7CNC(=N)N7C7OC(CO)C(O)C(O)C7O)NC(=O)C(C(O)C7CNC(=N)N7)NC6=O)cc5)C(O)C4O)C(O)C(O)C3O2)c1 (stereo not shown) [Example 150]

Reply:
[4, 8, 1]
